- method_description: Cytotoxicity against human HepG2 cells assessed as inhibition of cell viability at 50 uM by MTT assay relative to control
- Assay type: cell-based
- recorded_conditions: read-out: INH
assay_endpoint: cytotoxicity at 50 µM (%)

>  <molecule>
COC(=O)c1cc(OC)c2c(c1-c1c(C(=O)NCCCCCCCCCCCCNc3c4c(nc5ccccc35)CCCC4)cc(OC)c3c1OCO3)OCO2

>  <measured_result>
46.1

$$$$
>  <molecule>
COC(=O)c1cc(OC)c2c(c1-c1c(C(=O)NCCCCNc3c4c(nc5ccccc35)CCCC4)cc(OC)c3c1OCO3)OCO2

>  <measured_result>
19.5

$$$$
>  <molecule>
COC(=O)c1cc(OC)c2c(c1-c1c(C(=O)NCCCCCCNc3c4c(nc5ccccc35)CCCC4)cc(OC)c3c1OCO3)OCO2

>  <measured_result>
34.4

$$$$
>  <molecule>
COC(=O)c1cc(OC)c2c(c1-c1c(C(=O)NCCCCCCCCNc3c4c(nc5ccccc35)CCCC4)cc(OC)c3c1OCO3)OCO2

>  <measured_result>
51.9

$$$$
>  <molecule>
COC(=O)c1cc(OC)c2c(c1-c1c(C(=O)NCCCCCCCCCCNc3c4c(nc5ccccc35)CCCC4)cc(OC)c3c1OCO3)OCO2

>  <measured_result>
23.1

$$$$
>  <molecule>
COC(=O)c1cc(OC)c2c(c1-c1c(C(=O)OC)cc(OC)c3c1OCO3)OCO2 [BIFENDATE]

>  <measured_result>
11.6

$$$$

====

- method_description: Cytotoxicity against human HepG2 cells assessed as inhibition of cell viability at 1 uM by MTT assay relative to control
- Assay type: cell-based
- recorded_conditions: read-out: INH
assay_endpoint: cytotoxicity at 1 µM

>  <compound>
COC(=O)c1cc(OC)c2c(c1-c1c(C(=O)OC)cc(OC)c3c1OCO3)OCO2 [BIFENDATE]

>  <measured_result>
< 5%

$$$$
>  <compound>
COC(=O)c1cc(OC)c2c(c1-c1c(C(=O)NCCCCNc3c4c(nc5ccccc35)CCCC4)cc(OC)c3c1OCO3)OCO2

>  <measured_result>
< 5%

$$$$
>  <compound>
COC(=O)c1cc(OC)c2c(c1-c1c(C(=O)NCCCCCCNc3c4c(nc5ccccc35)CCCC4)cc(OC)c3c1OCO3)OCO2

>  <measured_result>
< 5%

$$$$

Attribution: ChEMBL document CHEMBL4145446
